test: sensitizers of A549 cells to miR-34 induction, primary screen, imaging, A549 dox-inducible miR-34, nuclei and caspase counts (AID 1347080); conditions: A549 miR-34 inducible, Hoechst nuclei count, 48 h; measured here: relative caspase fold change +Dox/-Dox; also: test concentration not given here
parameter: fold change
Response field accepts a number only; no unit should be typed.

Prompt: Name the reported fold change value associated with the compound O=C1/C(=C/c2ccccc2)C[C@@]2(O)C3Cc4ccc(O)c5c4[C@@]2(CCN3CC2CC2)[C@H]1O5
Completion: 0.83

Prompt: Name the reported fold change value associated with the compound COc1ccc2c(c1)c(CCN1CCOCC1)c(C)n2C(=O)c1cccc(Cl)c1Cl
Completion: 1.25

Prompt: Name the reported fold change value associated with the compound Cc1ccc(-n2nccn2)c(C(=O)N2CCN(c3nc4cc(Cl)ccc4o3)CCC2C)c1 (configuration not stated)
Completion: 0.399

Prompt: Name the reported fold change value associated with the compound Clc1cccc(SC2CCNCC2)n1
Completion: 0.88

Prompt: Name the reported fold change value associated with the compound C[C@H]1C(=O)O[C@@H]2CCN3CC=C(COC(=O)[C@](C)(O)[C@]1(C)O)[C@H]23
Completion: 1.54

Prompt: Name the reported fold change value associated with the compound COCC1OC(=O)c2coc3c2[C@@]1(C)C1=C(C3=O)[C@@H]2CCC(=O)[C@@]2(C)CC1OC(C)=O (some centres not stated)
Completion: 0.632

Prompt: Name the reported fold change value associated with the compound CCOC(=O)c1ncn2c1CN(C)C(=O)c1cc(N=[N+]=[N-])ccc1-2
Completion: 1.09

Prompt: Name the reported fold change value associated with the compound COc1ccc(/C=C\c2cc(OC)cc(OC)c2)cc1
Completion: 1.44

Prompt: Name the reported fold change value associated with the compound CCC(Oc1ccc(Cl)cc1)C(=O)OC1CC2CCC(C1)N2C (configuration not stated)
Completion: 1.03

Prompt: Name the reported fold change value associated with the compound O=NN(O)N1CCC[C@H]1C(=O)O
Completion: 1.07

Prompt: Name the reported fold change value associated with the compound O=C1CN=C(c2cccc(Br)c2)c2oc3ccccc3c2N1
Completion: 1.75

Prompt: Name the reported fold change value associated with the compound CN1C2CCC1CC(OC(c1ccccc1)c1ccccc1N)C2 (configuration not stated)
Completion: 2.1

Prompt: Name the reported fold change value associated with the compound COC1=C[C@@H]2C3=C([C@@H]2C1=O)[C@@H](NC(C)=O)CCc1cc(OC)c(OC)c(OC)c13
Completion: 1.41

Prompt: Name the reported fold change value associated with the compound C[C@]12Cc3cn[nH]c3C[C@@H]1CC[C@@H]1[C@@H]2CC[C@@]2(C)[C@H]1CC[C@]2(C)O
Completion: 2.02

Prompt: Name the reported fold change value associated with the compound CCCCC/C=C\C/C=C\C/C=C\C/C=C\CCCC(=O)NCC(=O)O
Completion: 1.02

Prompt: Name the reported fold change value associated with the compound Cc1cc([C@@H]2CCCN2C)on1
Completion: 1.47

Prompt: Name the reported fold change value associated with the compound NNC(N)=O
Completion: 0.77

Prompt: Name the reported fold change value associated with the compound c1ccc(C2(c3ccccc3)CC2C2=NCCN2)cc1 (configuration not stated)
Completion: 1.35

Prompt: Name the reported fold change value associated with the compound CCC[C@@H]1CC2=CC(=O)CC[C@]2(C)[C@H]2CC[C@@]3(C)[C@@H](CC[C@@]3(O)CCC(=O)O)[C@H]12
Completion: 0.977

Prompt: Name the reported fold change value associated with the compound C[C@]12CC[C@@H](O)C[C@@H]1CC[C@@H]1[C@@H]2CC[C@]2(C)C(=O)CC[C@@H]12
Completion: 1.48

Prompt: Name the reported fold change value associated with the compound Cc1[nH]cnc1CCN
Completion: 1.94

Prompt: Name the reported fold change value associated with the compound O=c1cccc2n1CC1CNCC2C1 (configuration not stated)
Completion: 1.17
